Experiment: in vitro
Conditions: mouse, liver microsomes
With a cut-off of 40%, any metabolised at 0.5 h strictly below it is called Satisfied; any metabolised at 0.5 h meeting it or above is called Not satisfied.

Task item: Could you please tell me whether metabolised at 0.5 h recorded for CNc1cc(Nc2cnc(C#N)c(O[C@H]3CCNC3)n2)ncc1-c1cnn(C)c1 is less than 40%?
Reply: Satisfied

Task item: Could you please tell me whether metabolised at 0.5 h recorded for CNc1cc(Nc2cnc(C#N)c(O[C@H]3CCN(C)C3)n2)ncc1-c1cnn(C)c1 is less than 40%?
Reply: Satisfied

Task item: Could you please tell me whether metabolised at 0.5 h recorded for CNc1cc(Nc2cnc(C#N)c(O[C@H](C)CN(C)C)n2)ncc1C1CC1 is less than 40%?
Reply: Not satisfied

Task item: Could you please tell me whether metabolised at 0.5 h recorded for COc1cc(Nc2cnc(C#N)c(O[C@H](C)CN(C)C)n2)ncc1-c1cnn(C)c1 is less than 40%?
Reply: Satisfied

Task item: Could you please tell me whether metabolised at 0.5 h recorded for CNc1cc(Nc2cnc(C#N)c(O[C@H](C)CN(C)C)n2)ncc1-c1cnn(C)c1 is less than 40%?
Reply: Satisfied

Task item: Could you please tell me whether metabolised at 0.5 h recorded for CNc1cc(Nc2cnc(C#N)c(O[C@@H]3CCN(C)C3)n2)ncc1-c1cnn(C)c1 is less than 40%?
Reply: Satisfied

Task item: Could you please tell me whether metabolised at 0.5 h recorded for COc1cc(Nc2cnc(C#N)c(O[C@@H]3CCN(C)C3)n2)ncc1-c1cnn(C)c1 is less than 40%?
Reply: Satisfied

Task item: Could you please tell me whether metabolised at 0.5 h recorded for CNc1cc(Nc2cnc(C#N)c(O[C@H](C)CN(C)C)n2)ncc1C(=O)OC is less than 40%?
Reply: Not satisfied

Task item: Could you please tell me whether metabolised at 0.5 h recorded for CNc1cc(Nc2cnc(C#N)c(O[C@H](C)CN(C)C)n2)ncc1C(F)(F)F is less than 40%?
Reply: Not satisfied

Cited source for all entries: ChEMBL document CHEMBL2203133
